protocol-details: pH-solubility profile of amorphous Letermovir (BCS approach)
Assay type: physicochemical
assay-conditions: standard buffer solutions, simulated gastric fluid, thermodynamic from solid; pH 1; 37°C±1°C, standard buffer, stirring 24 hours; read-out: Letermovir solubility
measure: solubility at 24 h

Query solubility at 24 h for COc1cccc(N2CCN(C3=Nc4c(F)cccc4[C@H](CC(=O)O)N3c3cc(C(F)(F)F)ccc3OC)CC2)c1 [Letermovir] > 900 µg/mL

----------
protocol-details: pH-solubility profile of amorphous Letermovir (BCS approach)
Type: physicochemical
assay-conditions: standard buffer solutions, aqueous buffer, thermodynamic from solid; pH 4.9 (pKa1 + 1); 37°C±1°C, standard buffer, stirring 24 hours; read-out: Letermovir solubility
measure: solubility at 24 h (µg/mL)
Report the figure in µg/mL without appending any unit label.

Query solubility at 24 h for COc1cccc(N2CCN(C3=Nc4c(F)cccc4[C@H](CC(=O)O)N3c3cc(C(F)(F)F)ccc3OC)CC2)c1 400

----------
protocol-details: BET specific surface area analysis
Assay type: physicochemical
assay-conditions: nitrogen adsorption at 77 K
Mark Fulfilled only when Specific Surface Area (SSA), m^2/g; BET value on average stays strictly below 1 m^2/g. Values equal to the cut-off are Not fulfilled.

# check: Specific Surface Area (SSA), m^2/g; BET value on average < 1 m^2/g for COc1cccc(N2CCN(C3=Nc4c(F)cccc4[C@H](CC(=O)O)N3c3cc(C(F)(F)F)ccc3OC)CC2)c1 [Batch 40474463] Not fulfilled

# check: Specific Surface Area (SSA), m^2/g; BET value on average < 1 m^2/g for COc1cccc(N2CCN(C3=Nc4c(F)cccc4[C@H](CC(=O)O)N3c3cc(C(F)(F)F)ccc3OC)CC2)c1 [Batch 40479198] Not fulfilled

# check: Specific Surface Area (SSA), m^2/g; BET value on average < 1 m^2/g for COc1cccc(N2CCN(C3=Nc4c(F)cccc4[C@H](CC(=O)O)N3c3cc(C(F)(F)F)ccc3OC)CC2)c1 [Batch 40479200] Not fulfilled

# check: Specific Surface Area (SSA), m^2/g; BET value on average < 1 m^2/g for COc1cccc(N2CCN(C3=Nc4c(F)cccc4[C@H](CC(=O)O)N3c3cc(C(F)(F)F)ccc3OC)CC2)c1 [Batch BXR3GBL, reference compound] Fulfilled

# check: Specific Surface Area (SSA), m^2/g; BET value on average < 1 m^2/g for COc1cccc(N2CCN(C3=Nc4c(F)cccc4[C@H](CC(=O)O)N3c3cc(C(F)(F)F)ccc3OC)CC2)c1 [Batch 40474375] Not fulfilled

# check: Specific Surface Area (SSA), m^2/g; BET value on average < 1 m^2/g for COc1cccc(N2CCN(C3=Nc4c(F)cccc4[C@H](CC(=O)O)N3c3cc(C(F)(F)F)ccc3OC)CC2)c1 [Batch 40483515] Not fulfilled

----------
protocol-details: Absolute bioavailability, Cohort 1 of a clinical trial (oral vs intravenous)
Type: in vivo
assay-conditions: human, plasma; single 30 mg oral dose (amorphous) vs 30 mg intravenous 30 min infusion; based on AUC0-last; 12 healthy female subjects
Protocol: Assessment of absolute bioavailability after oral administration of 30 mg Letermovir in the amorphous state versus a 30 minute intravenous administration of 30 mg Letermovir in 150 ml saline solution 0.9%. Cohort 1 of the trial was conducted in an open-label, randomized (to treatment sequence), single center cross-over design (2 periods) in 12 healthy female subjects. […]
measure: bioavailability (%)
Report the figure in % without appending any unit label.

Query bioavailability for COc1cccc(N2CCN(C3=Nc4c(F)cccc4[C@H](CC(=O)O)N3c3cc(C(F)(F)F)ccc3OC)CC2)c1 76
